experiment: solvent given as SMILES; conditions: in CCO
Kindly state absorption maximum for each of the entries shown.
A complete answer gives the number and then names the unit.

Quick note, absorption maximum for CN(C)c1ccc(C=C/C=C/C=C/c2ccc(C#N)cc2)cc1 landed at 418 nm

So, CCCCOC(=O)c1ccccc1-c1c2ccc(=[N+](CC)CC)cc-2oc2cc(N(CC)CC)ccc12 ? Its absorption maximum was 543 nm

The value of absorption maximum measured for the compound OC1(c2ccc(-c3cccs3)s2)CCCCC1 turned out to be 309 nm

Consider Cc1cccc2cc3c(=O)n(C)c(=O)n(C)c3nc12 . Its measured absorption maximum is 359 nm

The reported absorption maximum of the compound Cc1c(C)n2c(COC(=O)CNC(=O)OC(C)(C)C)c(C)c(=O)n2c1=O was 374 nm

The recorded absorption maximum for entry CCc1ccc(/C=N/c2cc(C(C)C)c(O)cc2C)cc1 equals 346 nm
